Target: recombinantly expressed human CETP N-terminally fused to GST (GST-CETP) (Homo sapiens, UniProt P11597)
Construct: not only antibodies directed to the peptide itself but also to the mature CETP protein; GST (N); made in house
Sequence (P11597 18-493): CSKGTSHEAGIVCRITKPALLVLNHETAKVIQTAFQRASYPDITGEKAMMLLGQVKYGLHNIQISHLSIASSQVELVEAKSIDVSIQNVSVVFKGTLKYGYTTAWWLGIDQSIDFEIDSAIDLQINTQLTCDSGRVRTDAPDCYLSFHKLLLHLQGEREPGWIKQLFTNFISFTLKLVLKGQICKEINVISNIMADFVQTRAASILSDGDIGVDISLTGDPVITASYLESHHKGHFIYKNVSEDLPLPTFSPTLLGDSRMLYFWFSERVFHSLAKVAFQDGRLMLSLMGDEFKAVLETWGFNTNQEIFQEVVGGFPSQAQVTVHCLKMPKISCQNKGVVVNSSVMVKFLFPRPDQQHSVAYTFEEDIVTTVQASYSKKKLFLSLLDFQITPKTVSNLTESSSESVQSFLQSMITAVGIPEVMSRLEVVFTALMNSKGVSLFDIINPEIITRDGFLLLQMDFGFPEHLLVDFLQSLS
Assay: Protein ELISA: anti-protein titers of sera from vaccinated mice
Assay type: in vivo, Balb/c mice
Settings: median values (n = 5); Balb/c mice s.c. three times 15 μg net peptide coupled to KLH, Alum; GST-CETP ELISA; titre = serum dilution at 50% of ODmax
Exercise: for every item that follows, state its recorded anti-protein titers.
Answers are plain numbers.

// solved cases for anti-protein titers follow
22 (FPRPDQQHSV) [compound 22]: 0
12 (WLGIDQS) [compound 12]: 0
15 (YTTAWWLGI) [compound 15]: 300
1 (YTTAWWLGIDQS) [compound 1]: 800
16 (YTTAWWLG) [compound 16]: 0
5 (GFNTNQEIFQEVVGGFP) [compound 5]: 100
6 (ESIQSFLQSMITA) [compound 6]: 0
3 (LHLQGEREPGWIKQ) [compound 3]: 50

Return reported anti-protein titers values for all items listed beneath this line.
1. 21 (TAWWLGI) [compound 21]
2. 17 (YTTAWWL) [compound 17]

-- reply
1: 0; 2: 0

---

Target: recombinantly expressed human CETP N-terminally fused to GST (GST-CETP) (Homo sapiens)
Construct: not only antibodies directed to the peptide itself but also to the mature CETP protein; GST (N); made in house
Sequence (P11597 18-493): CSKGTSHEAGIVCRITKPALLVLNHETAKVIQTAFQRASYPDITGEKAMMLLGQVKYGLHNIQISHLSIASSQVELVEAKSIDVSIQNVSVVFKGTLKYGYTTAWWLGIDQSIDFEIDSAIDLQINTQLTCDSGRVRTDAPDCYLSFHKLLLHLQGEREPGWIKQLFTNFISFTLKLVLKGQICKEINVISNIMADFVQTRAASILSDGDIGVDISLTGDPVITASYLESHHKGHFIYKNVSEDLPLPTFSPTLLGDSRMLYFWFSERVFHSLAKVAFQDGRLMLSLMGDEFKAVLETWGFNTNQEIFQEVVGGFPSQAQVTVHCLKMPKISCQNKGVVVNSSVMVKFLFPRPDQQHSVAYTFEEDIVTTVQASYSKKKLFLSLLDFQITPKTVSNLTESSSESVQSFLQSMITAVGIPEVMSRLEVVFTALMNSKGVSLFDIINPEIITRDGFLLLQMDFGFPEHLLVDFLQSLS
Assay: Protein ELISA: anti-protein titers of sera from vaccinated mice
Assay type: in vivo, Balb/c mice
Conditions: median values (n = 5); Balb/c mice s.c. three times 15 μg net peptide coupled to KLH, Alum; GST-CETP ELISA; titre = serum dilution at 50% of ODmax
Hi there, I'd appreciate the recorded anti-protein titers for every entry that follows.
Numbers only.

Please review the following examples before continuing.
14 (YTTAWWLGID) [compound 14]: 600
7 (YGYTTAWWLGIDQSID) [compound 7]: 500
2 (KAMMLLGQV) [compound 2]: 0
18 (TTAWWLGIDQ) [compound 18]: 900

Give anti-protein titers for each of the items listed below.
1. 20 (TTAWWLGI) [compound 20]
2. 4 (DEFKAVLETWG) [compound 4]

-- reply
1. 300
2. 0

---

Target: CETP activity of human serum (Homo sapiens)
Construct: Human serum was used as CETP source; from tissue; host or cells: human serum
Sequence (P11597 18-493): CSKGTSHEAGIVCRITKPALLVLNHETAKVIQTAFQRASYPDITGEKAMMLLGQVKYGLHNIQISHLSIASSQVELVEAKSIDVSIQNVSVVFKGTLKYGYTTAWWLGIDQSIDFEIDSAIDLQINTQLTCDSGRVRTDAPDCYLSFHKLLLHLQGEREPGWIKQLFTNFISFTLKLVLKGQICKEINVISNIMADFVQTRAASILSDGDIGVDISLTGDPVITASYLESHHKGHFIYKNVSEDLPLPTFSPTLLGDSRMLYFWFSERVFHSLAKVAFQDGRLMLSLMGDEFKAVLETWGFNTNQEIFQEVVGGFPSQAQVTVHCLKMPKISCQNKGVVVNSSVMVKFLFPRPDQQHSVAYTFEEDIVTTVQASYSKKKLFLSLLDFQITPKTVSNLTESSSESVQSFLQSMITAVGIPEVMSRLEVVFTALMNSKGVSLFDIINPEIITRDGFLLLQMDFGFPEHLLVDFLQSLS
Assay: CETP activity inhibition assay (Roar kit) with sera from vaccinated mice
Assay type: biochemical
Settings: n=5 mice per group; human serum as CETP source mixed with same amount of serum from vaccinated mice
quantity: no. of mice with antibodies inhibiting CETP activity

1 (YTTAWWLGIDQS) [compound 1]: 3 of 5
15 (YTTAWWLGI) [compound 15]: 0 of 5
13 (YTTAWWLGIDQ) [compound 13]: 1 of 5
7 (YGYTTAWWLGIDQSID) [compound 7]: 3 of 5
14 (YTTAWWLGID) [compound 14]: 1 of 5

// for each substance in input: emit no. of mice with antibodies inhibiting CETP activity
1. 8 (TTAWWLGIDQS) [compound 8]
2. 19 (TTAWWLGID) [compound 19]
3. 10 (AWWLGIDQS) [compound 10]
4. 9 (TAWWLGIDQS) [compound 9]

-- reply
["4 of 5", "3 of 5", "5 of 5", "4 of 5"]

Dear colleague, could you send me no. of mice with antibodies inhibiting CETP activity for each of the items below? Thanks.
1. 11 (WWLGIDQS) [compound 11]
2. 18 (TTAWWLGIDQ) [compound 18]

-- reply
1. 5 of 5
2. 4 of 5

---

Target: recombinantly expressed human CETP N-terminally fused to GST (GST-CETP) (Homo sapiens, UniProt P11597)
Construct: not only antibodies directed to the peptide itself but also to the mature CETP protein; GST (N); made in house
Sequence (P11597 18-493): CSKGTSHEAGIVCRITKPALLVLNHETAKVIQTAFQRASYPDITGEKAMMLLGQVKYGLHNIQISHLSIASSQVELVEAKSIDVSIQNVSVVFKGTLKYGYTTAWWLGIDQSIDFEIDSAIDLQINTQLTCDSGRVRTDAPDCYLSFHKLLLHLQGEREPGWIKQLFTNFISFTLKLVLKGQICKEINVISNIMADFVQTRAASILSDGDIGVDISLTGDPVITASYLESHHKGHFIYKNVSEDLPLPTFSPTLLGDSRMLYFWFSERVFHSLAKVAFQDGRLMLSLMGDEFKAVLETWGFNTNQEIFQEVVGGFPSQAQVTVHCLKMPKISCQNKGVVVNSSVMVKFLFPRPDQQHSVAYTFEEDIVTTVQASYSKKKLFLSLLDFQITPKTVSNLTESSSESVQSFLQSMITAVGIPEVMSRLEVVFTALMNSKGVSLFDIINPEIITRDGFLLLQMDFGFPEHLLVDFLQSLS
Test: Protein ELISA: anti-protein titers of sera from vaccinated mice
Assay type: in vivo, Balb/c mice
Conditions: median values (n = 5); Balb/c mice s.c. three times 15 μg net peptide coupled to KLH, Alum; GST-CETP ELISA; titre = serum dilution at 50% of ODmax
quantity: anti-protein titers

Some entries whose results are on file:
8 (TTAWWLGIDQS) [compound 8]: 1,200
11 (WWLGIDQS) [compound 11]: 1,100

Field: anti-protein titers. Fill in for each record below.
1. 10 (AWWLGIDQS) [compound 10]
2. 9 (TAWWLGIDQS) [compound 9]

-- reply
1,700
2,200
